- ASSAY SYSTEM: Gcr1 (UniProt P07261)
- Sequence: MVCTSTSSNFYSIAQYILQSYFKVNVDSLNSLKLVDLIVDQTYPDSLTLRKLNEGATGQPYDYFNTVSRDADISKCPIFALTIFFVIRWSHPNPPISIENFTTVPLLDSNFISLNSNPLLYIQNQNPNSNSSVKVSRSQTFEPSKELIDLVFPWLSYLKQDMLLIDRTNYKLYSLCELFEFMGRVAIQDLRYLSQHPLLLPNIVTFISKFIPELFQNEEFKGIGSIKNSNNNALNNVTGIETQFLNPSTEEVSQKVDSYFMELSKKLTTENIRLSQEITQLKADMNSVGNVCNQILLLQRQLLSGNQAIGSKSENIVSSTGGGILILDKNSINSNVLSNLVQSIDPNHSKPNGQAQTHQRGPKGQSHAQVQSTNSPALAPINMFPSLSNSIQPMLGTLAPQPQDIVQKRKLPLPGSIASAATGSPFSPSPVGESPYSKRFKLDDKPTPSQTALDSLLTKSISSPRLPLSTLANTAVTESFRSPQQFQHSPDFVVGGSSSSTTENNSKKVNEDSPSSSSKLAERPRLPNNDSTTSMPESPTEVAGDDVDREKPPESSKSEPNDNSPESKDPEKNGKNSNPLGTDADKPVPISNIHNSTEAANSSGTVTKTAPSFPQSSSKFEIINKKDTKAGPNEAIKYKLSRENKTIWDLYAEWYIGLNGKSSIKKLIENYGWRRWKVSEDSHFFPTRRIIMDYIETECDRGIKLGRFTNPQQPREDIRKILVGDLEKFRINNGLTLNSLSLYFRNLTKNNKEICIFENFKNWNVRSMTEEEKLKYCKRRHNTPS
- TEST SUMMARY: PBM E-score (8-mer binding enrichment) (E-score (-0.5 to 0.5)); higher = stronger / more preferred TF binding
- STATED CONDITIONS: protein concentration: 100 nM; construct: GST-full length
In all, about 33,000 sequences were measured (“E-score (-0.5 to 0.5)”: median about -0.011, highest 2% from about 0.28 on). Only a selection was taken, and the highest values are over-represented in it overall.
Tick satisfied if PBM E-score is 0.2 or greater. Tick not satisfied if PBM E-score is less than 0.2.

These recorded examples may help you get a feel for the data.
>  <SEQUENCE STRING>
AGACGCCG

>  <ASSAY SYSTEM>
Gcr1 (UniProt P07261)

>  <QUALITATIVE LABEL>
satisfied

$$$$
>  <SEQUENCE STRING>
GCACCATA

>  <ASSAY SYSTEM>
Gcr1 (UniProt P07261)

>  <QUALITATIVE LABEL>
satisfied

$$$$
>  <SEQUENCE STRING>
CCTGGATC

>  <ASSAY SYSTEM>
Gcr1 (UniProt P07261)

>  <QUALITATIVE LABEL>
not satisfied

$$$$
>  <SEQUENCE STRING>
CCACGCCG

>  <ASSAY SYSTEM>
Gcr1 (UniProt P07261)

>  <QUALITATIVE LABEL>
not satisfied

$$$$
>  <SEQUENCE STRING>
GCTTTCTA

>  <ASSAY SYSTEM>
Gcr1 (UniProt P07261)

>  <QUALITATIVE LABEL>
not satisfied

$$$$

Please tell me: is the sequence ATCAGATA at or over 0.2 in terms of PBM E-score?
not satisfied

Please tell me: is the sequence GACTAACC at or over 0.2 in terms of PBM E-score?
not satisfied

Please tell me: is the sequence AGACGCAT at or over 0.2 in terms of PBM E-score?
satisfied

Please tell me: is the sequence CGGGAAAC at or over 0.2 in terms of PBM E-score?
not satisfied

Please tell me: is the sequence AGGGAAGG at or over 0.2 in terms of PBM E-score?
not satisfied

Please tell me: is the sequence GCTGATCC at or over 0.2 in terms of PBM E-score?
not satisfied

Please tell me: is the sequence CGGGAAGA at or over 0.2 in terms of PBM E-score?
not satisfied

Please tell me: is the sequence AAATTTTA at or over 0.2 in terms of PBM E-score?
not satisfied

Please tell me: is the sequence AAGAGGGG at or over 0.2 in terms of PBM E-score?
not satisfied

Please tell me: is the sequence AGTTCCAT at or over 0.2 in terms of PBM E-score?
not satisfied

###

- ASSAY SYSTEM: Gcr1 (UniProt P07261)
- Sequence: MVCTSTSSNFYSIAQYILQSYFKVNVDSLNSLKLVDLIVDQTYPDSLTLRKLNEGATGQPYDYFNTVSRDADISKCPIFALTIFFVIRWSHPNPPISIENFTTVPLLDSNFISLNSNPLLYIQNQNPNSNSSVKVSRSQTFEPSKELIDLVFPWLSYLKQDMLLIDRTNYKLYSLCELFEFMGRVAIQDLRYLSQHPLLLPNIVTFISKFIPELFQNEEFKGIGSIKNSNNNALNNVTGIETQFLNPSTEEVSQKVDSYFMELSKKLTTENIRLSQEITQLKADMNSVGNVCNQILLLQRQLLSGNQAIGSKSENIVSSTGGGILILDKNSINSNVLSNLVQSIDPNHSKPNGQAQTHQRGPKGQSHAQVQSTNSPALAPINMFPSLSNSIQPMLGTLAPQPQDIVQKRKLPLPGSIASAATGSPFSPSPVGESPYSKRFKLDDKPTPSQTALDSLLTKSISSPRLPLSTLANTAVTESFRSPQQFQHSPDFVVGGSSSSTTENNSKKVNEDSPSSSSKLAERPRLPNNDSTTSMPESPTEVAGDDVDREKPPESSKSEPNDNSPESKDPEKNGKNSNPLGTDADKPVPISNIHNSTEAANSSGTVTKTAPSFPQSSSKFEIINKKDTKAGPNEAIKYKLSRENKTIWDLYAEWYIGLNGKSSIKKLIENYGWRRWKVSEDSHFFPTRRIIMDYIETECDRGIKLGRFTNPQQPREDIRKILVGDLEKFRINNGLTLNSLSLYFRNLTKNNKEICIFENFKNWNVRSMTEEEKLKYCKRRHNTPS
- TEST SUMMARY: PBM E-score (8-mer binding enrichment) (E-score (-0.5 to 0.5)); higher = stronger / more preferred TF binding
- STATED CONDITIONS: protein concentration: 100 nM; construct: GST-full length
Over roughly 33,000 sequences, “E-score (-0.5 to 0.5)” has its median near -0.011; the highest 2% begin near 0.28. What follows is part of a selection rich in the highest values, with near analogues and random picks from the rest.
Tick 1 if PBM E-score is 0.1 or greater. Tick 0 if PBM E-score is less than 0.1.

These recorded examples may help you get a feel for the data.
>  <SEQUENCE STRING>
ATTTTAGC

>  <QUALITATIVE LABEL>
0

$$$$
>  <SEQUENCE STRING>
CGATCCCC

>  <QUALITATIVE LABEL>
1

$$$$
>  <SEQUENCE STRING>
GCATCCCC

>  <QUALITATIVE LABEL>
1

$$$$
>  <SEQUENCE STRING>
GGTGCTGA

>  <QUALITATIVE LABEL>
1

$$$$

Please tell me: is the sequence CTTGGTGC at or over 0.1 in terms of PBM E-score?
1

Please tell me: is the sequence GGGGACCC at or over 0.1 in terms of PBM E-score?
1

Please tell me: is the sequence GGTGCTTA at or over 0.1 in terms of PBM E-score?
1

###

- ASSAY SYSTEM: Gcr1 (UniProt P07261)
- Sequence: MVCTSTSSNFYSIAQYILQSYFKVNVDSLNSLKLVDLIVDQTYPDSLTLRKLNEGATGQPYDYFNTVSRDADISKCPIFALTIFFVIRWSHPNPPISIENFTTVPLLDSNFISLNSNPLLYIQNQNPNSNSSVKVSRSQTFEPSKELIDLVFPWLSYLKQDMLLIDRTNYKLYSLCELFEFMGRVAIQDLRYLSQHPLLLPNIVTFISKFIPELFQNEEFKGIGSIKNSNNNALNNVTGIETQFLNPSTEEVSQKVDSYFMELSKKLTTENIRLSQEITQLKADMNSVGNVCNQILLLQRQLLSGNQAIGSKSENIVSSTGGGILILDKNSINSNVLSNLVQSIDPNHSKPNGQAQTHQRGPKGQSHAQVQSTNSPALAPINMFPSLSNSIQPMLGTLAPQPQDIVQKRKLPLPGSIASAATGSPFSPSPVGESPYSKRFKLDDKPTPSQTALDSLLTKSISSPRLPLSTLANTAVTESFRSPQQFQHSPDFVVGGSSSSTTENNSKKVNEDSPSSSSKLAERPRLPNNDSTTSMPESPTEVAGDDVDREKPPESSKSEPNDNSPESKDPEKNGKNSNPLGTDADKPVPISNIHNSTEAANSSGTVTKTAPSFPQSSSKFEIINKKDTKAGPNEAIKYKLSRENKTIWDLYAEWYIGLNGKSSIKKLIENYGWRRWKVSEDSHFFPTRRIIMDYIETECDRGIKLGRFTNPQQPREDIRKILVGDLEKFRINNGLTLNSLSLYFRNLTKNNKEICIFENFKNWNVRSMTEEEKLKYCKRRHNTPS
- TEST SUMMARY: PBM E-score (8-mer binding enrichment) (E-score (-0.5 to 0.5)); higher = stronger / more preferred TF binding
- STATED CONDITIONS: protein concentration: 100 nM; construct: GST-full length
In all, about 33,000 sequences were measured (“E-score (-0.5 to 0.5)”: median about -0.011, highest 2% from about 0.28 on). The entries come from a sample that favours the highest values as a whole.
Reported PBM E-score values for a set of sequences
Enter the number alone.

Consider the reported PBM E-score for these sequences:
>  <SEQUENCE STRING>
CATCCAAA

>  <ASSAY SYSTEM>
Gcr1 (UniProt P07261)

>  <PBM E-score>
0.298

$$$$
>  <SEQUENCE STRING>
CGATGCCG

>  <ASSAY SYSTEM>
Gcr1 (UniProt P07261)

>  <PBM E-score>
0.145

$$$$
>  <SEQUENCE STRING>
CCGCAGCG

>  <ASSAY SYSTEM>
Gcr1 (UniProt P07261)

>  <PBM E-score>
0.0315

$$$$
>  <SEQUENCE STRING>
CTTCCACA

>  <ASSAY SYSTEM>
Gcr1 (UniProt P07261)

>  <PBM E-score>
0.349

$$$$
>  <SEQUENCE STRING>
ACATATCA

>  <ASSAY SYSTEM>
Gcr1 (UniProt P07261)

>  <PBM E-score>
0.129

$$$$
>  <SEQUENCE STRING>
ATGGCTGC

>  <ASSAY SYSTEM>
Gcr1 (UniProt P07261)

>  <PBM E-score>
0.168

$$$$
>  <SEQUENCE STRING>
CCTCGGTC

>  <ASSAY SYSTEM>
Gcr1 (UniProt P07261)

>  <PBM E-score>
-0.223

$$$$
>  <SEQUENCE STRING>
CGACATTC

>  <ASSAY SYSTEM>
Gcr1 (UniProt P07261)

>  <PBM E-score>
-0.0306

$$$$
>  <SEQUENCE STRING>
AAGGAATC

>  <ASSAY SYSTEM>
Gcr1 (UniProt P07261)

>  <PBM E-score>
0.26

$$$$
>  <SEQUENCE STRING>
ATTCCGAA

>  <ASSAY SYSTEM>
Gcr1 (UniProt P07261)

>  <PBM E-score>
0.147

$$$$

So what PBM E-score did TGAAAGCA get with Gcr1 (UniProt P07261)?
0.00794

So what PBM E-score did ATTTTTCA get with Gcr1 (UniProt P07261)?
0.1

So what PBM E-score did CTCAGAAA get with Gcr1 (UniProt P07261)?
-0.133

So what PBM E-score did CATCCAAG get with Gcr1 (UniProt P07261)?
-0.0862

So what PBM E-score did CAGGGTGC get with Gcr1 (UniProt P07261)?
0.234

So what PBM E-score did CTGGCTGC get with Gcr1 (UniProt P07261)?
0.35

So what PBM E-score did ACTCCAAA get with Gcr1 (UniProt P07261)?
0.116

So what PBM E-score did TACCTGAA get with Gcr1 (UniProt P07261)?
0.0937
